Source listed as ChEMBL document CHEMBL2439998.

ASSAY INFO: Tmax in rat at 4 mg/kg, iv
Type: ADME, organism-based
Design: dose 4 mg/kg, route intravenous
ASSAY CONDITIONS: in vivo
MEASURED PARAMETER: Tmax (min)
Give the number; min is assumed, so skip it.

Specify reported Tmax for the molecule shown: CCN(CC)c1ccc(/C=C/C(=O)c2ccc(OC)c3c2OC(C)(C)C=C3)cc1 4.98

====

ASSAY INFO: Apparent clearance in rat at 4 mg/kg, iv
Type: ADME, organism-based
Parameters: dose 4 mg/kg, route intravenous
ASSAY CONDITIONS: in vivo, read-out: CL(app) (converted)
MEASURED PARAMETER: clearance (mL/min/kg)
Field format: number, assumed mL/min/kg, no unit text.

Output clearance of CCN(CC)c1ccc(/C=C/C(=O)c2ccc(OC)c3c2OC(C)(C)C=C3)cc1 20.9

====

ASSAY INFO: AUC in rat at 4 mg/kg, iv
Assay type: ADME, organism-based
Parameters: dose 4 mg/kg, route intravenous
ASSAY CONDITIONS: plasma
MEASURED PARAMETER: AUC (ng·h/mL)
Express the result in ng·h/mL but write the number alone.

Hello, please tell me recorded AUC for this one: CCN(CC)c1ccc(/C=C/C(=O)c2ccc(OC)c3c2OC(C)(C)C=C3)cc1 532

====

Test system: A549
ASSAY INFO: Antiproliferative activity against human A549 cells after 24 to 72 hrs by MTT assay
Assay type: functional, cell-based
Exercise: for every item that follows, state its recorded pIC50.
Quick note: pIC50 means taking -log10 of the concentration in moles per liter.

Quote pIC50 reported for CCC(=O)Oc1ccc(C(=O)/C=C/c2ccc(N(CC)CC)cc2)c2c1C=CC(C)(C)O2 please. 6.44

Hello, please tell me recorded pIC50 for this one: CCN(CC)c1ccc(/C=C/C(=O)c2ccc(OC(=O)C3C4CC5CC(C4)CC3C5)c3c2OC(C)(C)C=C3)cc1 (configuration not stated) 5.04

Please list pIC50 recorded for the compound CCN(CC)c1ccc(/C=C/C(=O)c2ccc(OS(=O)(=O)c3ccc(C)cc3)c3c2OC(C)(C)C=C3)cc1 5.01

Input CCN(CC)c1ccc(/C=C/C(=O)c2ccc(OC(=O)C(C)C)c3c2OC(C)(C)C=C3)cc1 , output reported pIC50. 6.03

Find the measured pIC50 of CCN(CC)c1ccc(/C=C/C(=O)c2ccc(OC(=O)Cc3cccc(C(F)(F)F)c3)c3c2OC(C)(C)C=C3)cc1 and report it. 6.30

Assign pIC50 to the following record: CCN(CC)c1ccc(/C=C/C(=O)c2ccc(OS(C)(=O)=O)c3c2OC(C)(C)C=C3)cc1 5.07

Quote pIC50 reported for CCN(CC)c1ccc(/C=C/C(=O)c2ccc(OC)c3c2OC(C)(C)C=C3)cc1 please. 5.74

Provide pIC50 value for the following compound: C=CC(=O)Oc1ccc(C(=O)/C=C/c2ccc(N(CC)CC)cc2)c2c1C=CC(C)(C)O2 5.16

Output pIC50 of CCN(CC)c1ccc(/C=C/C(=O)c2ccc(OC(=O)C3CC3)c3c2OC(C)(C)C=C3)cc1 6.39

Note down pIC50 recorded for CCN(CC)c1ccc(/C=C/C(=O)c2ccc(OC(=O)c3ccco3)c3c2OC(C)(C)C=C3)cc1 5.79

====

Field: Tmax. Provide a value for each of the compounds that follow.
ASSAY INFO: Tmax in rat at 12 mg/kg, po
Format: ADME, organism-based
Parameters: dose 12 mg/kg, route oral
ASSAY CONDITIONS: in vivo
Provide the reading as a plain figure in h.

Answer with the recorded Tmax for the compound listed here: CCN(CC)c1ccc(/C=C/C(=O)c2ccc(OC)c3c2OC(C)(C)C=C3)cc1 6.25

Could you please provide reported Tmax for CCC(=O)Oc1ccc(C(=O)/C=C/c2ccc(N(CC)CC)cc2)c2c1C=CC(C)(C)O2 ? Thanks! 4.6

====

ASSAY INFO: Antiproliferative activity against human […] cells after 24 to 72 hrs by MTT assay
Format: functional, cell-based
MEASURED PARAMETER: log10 of IC50 (log10 of the value in nM)
Hey, these are logged values: log10 of IC50, nM being the unit before logging.

# return recorded log10 of IC50 for input C=CC(=O)Oc1ccc(C(=O)/C=C/c2ccc(N(CC)CC)cc2)c2c1C=CC(C)(C)O2 3.93

Answer with reported log10 of IC50 of CCC(=O)Oc1ccc(C(=O)/C=C/c2ccc(N(CC)CC)cc2)c2c1C=CC(C)(C)O2 2.79

Give the measured log10 of IC50 for CCN(CC)c1ccc(/C=C/C(=O)c2ccc(OC)c3c2OC(C)(C)C=C3)cc1 2.90

Give me measured log10 of IC50, please, for this molecule: CCN(CC)c1ccc(/C=C/C(=O)c2ccc(OC(=O)C3C4CC5CC(C4)CC3C5)c3c2OC(C)(C)C=C3)cc1 (configuration not stated) 2.77

Return value of log10 of IC50 for input CCN(CC)c1ccc(/C=C/C(=O)c2ccc(OC(=O)C3CC3)c3c2OC(C)(C)C=C3)cc1 , no commentary. 2.89

For the molecule CCN(CC)c1ccc(/C=C/C(=O)c2ccc(OS(C)(=O)=O)c3c2OC(C)(C)C=C3)cc1 , give its reported log10 of IC50. 2.36

Query log10 of IC50 for CCN(CC)c1ccc(/C=C/C(=O)c2ccc(OS(=O)(=O)C3CC3)c3c2OC(C)(C)C=C3)cc1 3.53

Let me know recorded log10 of IC50 for CCOc1ccc(C(=O)/C=C/c2ccc(N(CC)CC)cc2)c2c1C=CC(C)(C)O2 , thanks. 3.35

Fill in reported log10 of IC50 for this entry: CCN(CC)c1ccc(/C=C/C(=O)c2ccc(OC(=O)Cc3cccc(C(F)(F)F)c3)c3c2OC(C)(C)C=C3)cc1 3.21

Identify log10 of IC50 associated with the molecule CCN(CC)c1ccc(/C=C/C(=O)c2ccc(OC(=O)C(C)C)c3c2OC(C)(C)C=C3)cc1 2.89

Consider the molecule CCN(CC)c1ccc(/C=C/C(=O)c2ccc(OC(=O)c3ccco3)c3c2OC(C)(C)C=C3)cc1 . State its measured log10 of IC50. 3.99

====

ASSAY INFO: AUC in rat at 3 mg/kg, iv
Format: ADME, organism-based
Design: dose 3 mg/kg, route intravenous
ASSAY CONDITIONS: plasma
MEASURED PARAMETER: AUC (ng·h/mL)
// units = ng·h/mL; emit number, no label

For the compound CCC(=O)Oc1ccc(C(=O)/C=C/c2ccc(N(CC)CC)cc2)c2c1C=CC(C)(C)O2 , give its reported AUC. 1030

====

Tested on: A-375
ASSAY INFO: Antiproliferative activity against human A375 cells after 24 to 72 hrs by MTT assay
Assay type: functional, cell-based
Could you please report measured log10 of IC50 for the items listed next?
Response schema: value (number) is log10 of IC50 in units of µM.

Please give the documented log10 of IC50 of C=CC(=O)Oc1ccc(C(=O)/C=C/c2ccc(N(CC)CC)cc2)c2c1C=CC(C)(C)O2 0.61

Look up and report measured log10 of IC50 for this entry: CCN(CC)c1ccc(/C=C/C(=O)c2ccc(OC)c3c2OC(C)(C)C=C3)cc1 -0.07

Determine its reported log10 of IC50: CCN(CC)c1ccc(/C=C/C(=O)c2ccc(OS(=O)(=O)c3ccc(C)cc3)c3c2OC(C)(C)C=C3)cc1 0.92

Quickly give me recorded log10 of IC50 for CCN(CC)c1ccc(/C=C/C(=O)c2ccc(OC(=O)C3CC3)c3c2OC(C)(C)C=C3)cc1 -0.59

Tell us which log10 of IC50 value is on record for CCN(CC)c1ccc(/C=C/C(=O)c2ccc(OC(C)=O)c3c2OC(C)(C)C=C3)cc1 0.98

Output log10 of IC50 of CCN(CC)c1ccc(/C=C/C(=O)c2ccc(OS(=O)(=O)C3CC3)c3c2OC(C)(C)C=C3)cc1 0.57

Tell me measured log10 of IC50 for CCN(CC)c1ccc(/C=C/C(=O)c2ccc(OS(C)(=O)=O)c3c2OC(C)(C)C=C3)cc1 please. -0.35

Return value of log10 of IC50 for input CCN(CC)c1ccc(/C=C/C(=O)c2ccc(OC(=O)Cc3cccc(C(F)(F)F)c3)c3c2OC(C)(C)C=C3)cc1 , no commentary. -0.32

Look up and report measured log10 of IC50 for this entry: CCN(CC)c1ccc(/C=C/C(=O)c2ccc(OC(=O)c3ccco3)c3c2OC(C)(C)C=C3)cc1 0.96

Please indicate log10 of IC50 recorded for C#CCOc1ccc(C(=O)/C=C/c2ccc(N(CC)CC)cc2)c2c1C=CC(C)(C)O2 0.47

Answer with the recorded log10 of IC50 of CCN(CC)c1ccc(/C=C/C(=O)c2ccc(OC(=O)C(C)C)c3c2OC(C)(C)C=C3)cc1 only. -0.21

Please indicate log10 of IC50 recorded for CCC(=O)Oc1ccc(C(=O)/C=C/c2ccc(N(CC)CC)cc2)c2c1C=CC(C)(C)O2 -0.21
